system: LOX IMVI melanoma; assay: NCI tumour cell line growth inhibition, 48 h
Provide the reported TGI of each item.

- molecule: "S=c1sscc1N1CCSc2ssc(=S)c21"
  TGI: "> 100 µM"
- molecule: "Nc1nc2c(ncn2CC(CO)CC(c2ccccc2)P(=O)(O)O)c(=O)[nH]1 (stereo unspecified)"
  TGI: "> 100 µM"
- molecule: "Cc1ccc(S(=O)(=O)NC(=O)NCC(=O)O)cc1"
  TGI: "> 100 µM"
- molecule: "CCOC(=O)c1c[nH]c2cc3c(cc2c1=O)CCS3"
  TGI: "> 100 µM"
- molecule: "NCCNc1ncnc2ccc(Cl)cc12"
  TGI: "> 100 µM"

Moving on to another molecule below.
TGI reading for O=C(OCc1ccccc1)c1ccccc1-c1c2ccc(=O)cc-2oc2cc(OCc3ccccc3)ccc12 : 21.2 µM

----------
test system: UACC-62 melanoma; assay: NCI tumour cell line growth inhibition, 48 h
Where a SMILES comes first, the peptide text is derived from it. [ ]: non-standard residue; d: D form. The star is where a group is joined. ξ: configuration not given here. dIva = CC[C@@](C)(N)C(=O)O; Aib = CC(C)(N)C(=O)O; ξP = O=C(O)C1CCCN1; βAla = NCCC(=O)O; X5 = OCN*
Provide the reported log10 of TGI of each item.
# values: log10(TGI), units µM

- compound: "COc1cc2c(cc1O)N=C[C@@H]1CCC(O)N1C2=O (mixture of isomers)"
  number: 0.18
- compound: "CC[C@@](C)(NC(=O)[C@H](C)NC(=O)CCNC(=O)C(C)(C)NC(=O)[C@H](C)NC(=O)[C@@H]1CCCN1C(=O)[C@@](C)(CC)NC(=O)[C@H](Cc1ccccc1)NC(=O)C1CCCN1C(=O)C(C)(C)NC(=O)C1CCCN1C(=O)C(C)(C)NC(C)=O)C(=O)NCCC(=O)N[C@@H](CC(C)C)C(=O)NC(C)(C)C(=O)NCCC(=O)N[C@@H](CC(C)C)C(=O)NC(C)(C)C(=O)NC(C)(C)C(=O)N[C@@H](CC(C)C)C(=O)NCCC(=O)NCO (some centres not stated) (Ac-[Aib][ξP][Aib][ξP]F[dIva]PA[Aib][βAla]A[dIva][βAla]L[Aib][βAla]L[Aib][Aib]L[βAla]-X5)"
  number: -0.30

State recorded log10 of TGI for all listed compounds.
1. O=C(Nc1ccc(N2CCNCC2)cn1)c1[nH]ncc1Nc1ncnc2sc3c(c12)CCC3
2. O=C(N1CCN(c2ccccc2)CC1)N(C(=O)C1(c2ccc(Cl)cc2)CCCC1)S(=O)(=O)c1ccccc1
3. C=CC(=O)Nc1cccc(Nc2nc(Nc3ccc(N4CCN(C(C)=O)CC4)cc3OC)ncc2C(F)(F)F)c1
4. CC(=O)N1c2ccc(-c3ccc(C(=O)O)cc3)cc2[C@H](Nc2ccc(Cl)cc2)C[C@@H]1C

Reply:
0.62
1.71
1.35
1.06

State recorded log10 of TGI for all listed compounds.
1. CCCCCCCCCCCCCCCC(N)c1ccccc1 (configuration not stated)
2. COC(=O)[C@]1(C)CC[C@]2(C)CC[C@]3(C)C(=CC(=O)[C@@H]4[C@@]5(C)CCC(=O)NC(C)(C)[C@@H]5CC[C@]43C)[C@@H]2C1

Reply:
1: 0.51; 2: 1.58

----------
system: 786-0 renal; test: NCI tumour cell line growth inhibition, 48 h; in the data active = GI50 below about 0.43 µM; inactive = the rest
Result category, one only: active, inactive

- smi: "COc1ccc(OC)c(/C=C/C(=O)c2ccc3cc(OC)ccc3c2)c1"
  target.system: "786-0 renal"
  assigned.class: "inactive"
- smi: "COc1ccc(-c2cc(=O)c3cccnc3[nH]2)cc1"
  target.system: "786-0 renal"
  assigned.class: "inactive"
- smi: "CN(C)c1ccc(/C=c2\\sc3nnc(Cc4ccccc4)n3c2=O)cc1"
  target.system: "786-0 renal"
  assigned.class: "inactive"
- smi: "COc1ccc2c(c1)NC(=O)CN2c1nc(C)nc2ccccc12"
  target.system: "786-0 renal"
  assigned.class: "active"
- smi: "Nc1nc(N)c(-c2ccc(Cl)cc2)c(/C=C/c2ccc([N+](=O)[O-])cc2)n1"
  target.system: "786-0 renal"
  assigned.class: "inactive"

Shifting focus to the compound that follows.
Query: Which outcome was assigned to C[C@H](c1ccc(Cl)cc1[N+](=O)[O-])N1C(=O)c2cc(I)ccc2NC(=O)[C@H]1c1ccc(Cl)cc1 in this test?
Reply: inactive

----------
test system: SF-539 CNS; experiment: NCI tumour cell line growth inhibition, 48 h
result.type: TGI

Below: 5 compounds and their reported TGI.
- compound: "Cc1ccc(S(=O)(=O)N/N=C2\\CC3C4CCC3C2C4)cc1 (stereo not drawn)"
  TGI: "> 100 µM"
- compound: "CC(=O)Nc1ccc2c3c(cc(O)c2c1)N(C(=O)CCCCCC(=O)Nc1ccc2c4c(cc(O)c2c1)N(C(=O)OC(C)(C)C)CC4CCl)CC3CCl (stereo not drawn)"
  TGI: "13.1 µM"
- compound: "N#CC1C(=O)NC(=O)C(C#N)C1c1ccc(Cl)c(Cl)c1 (stereo not drawn)"
  TGI: "42.6 µM"
- compound: "CC1OC(n2cnc3c(N)nc(Cl)nc32)C(C)(O)C1O (stereo not drawn)"
  TGI: "> 25 µM"
- compound: "CCOc1ccccc1NC(=O)C(=O)c1c(O)c2ccc(O)cc2oc1=O"
  TGI: "> 100 µM"

State recorded TGI for all listed compounds.
1. NCCSc1nc(N)c2ncn(C3OC(CO)C(O)C3O)c2n1 (stereo not drawn)
2. COc1ccc(-c2cc(=O)c3cccnc3[nH]2)cc1
3. C=C1C(OCCO)OC2O[C@]3(C)CCC4[C@H](C)CCC1C24OO3 (stereo partly drawn)
4. Fc1ccc(C(OCCN2CCC3CCC(C2)N3C/C=C/c2cccnc2)c2ccc(F)cc2)cc1 (stereo not drawn)

Reply:
["> 100 µM", "> 100 µM", "> 100 µM", "25.2 µM"]

State recorded TGI for all listed compounds.
1. C/C=C1/C(=O)O[C@]23C=C[C@@H]4C(C(=O)OC)=CO[C@H](O[C@@H]12)[C@@H]43
2. COC(=O)/C=C/N1CC1
3. CC(=O)CC(=O)ON(C)C(=O)Cc1ccccc1
4. Cn1c(=O)c2[nH]cnc2n(C)c1=O.[CH2-]C(Cc1cccc2cc(C(=O)O)c(=O)oc12)OC.[Hg+2].[OH-] (stereo not drawn)
5. COc1ccc(/C=C/C(=O)/C=C(/C=C/c2ccc(OC)c(OC)c2OC)OB(F)F)c(OC)c1OC

Reply:
1: 7.39 µM; 2: > 10 µM; 3: > 100 µM; 4: 29.8 µM; 5: > 100 µM

State recorded TGI for all listed compounds.
1. COc1ccc(-c2cc3c(N)ncnc3o2)cc1
2. CC(=O)c1cccc(NC(=O)/C(=N\NC(=S)NN)C2C(=O)Nc3ccccc3S2=O)c1 (stereo not drawn)
3. CCCC(CCC)C(=O)O
4. COn1cc(C(=O)N=C(SC)SC)c2ccccc21

Reply:
1. > 25 µM
2. > 100 µM
3. > 20000 µM
4. 43.4 µM

State recorded TGI for all listed compounds.
1. COc1cc(C2SC(N)=Nc3c2c(C)nn3C(=O)c2ccc(Cl)cc2)ccc1O (stereo not drawn)
2. COC(=O)C(Cc1ccccc1)N=Cc1c(O)c(O)c(C(C)C)c2cc(C)c(-c3c(C)cc4c(C(C)C)c(O)c(O)c(C=NC(Cc5ccccc5)C(=O)OC)c4c3O)c(O)c12 (stereo not drawn)

Reply:
1: > 10 µM; 2: 43.6 µM

State recorded TGI for all listed compounds.
1. O=C1/C(=C/c2cccc(F)c2)CN(C(=O)C(Cl)Cl)C/C1=C\c1cccc(F)c1
2. CCCCn1c2c(n(CCCC)c1=[Se])-c1c(n(CCCC)c(=[Se])n1CCCC)S[Se][Se]S2
3. O=[N+]([O-])c1ccc2nc(=S)[nH]n2c1
4. C#CC1(O)CC(c2ccccc2)N(C)C(c2ccccc2)C1 (stereo not drawn)
5. CN1C(=O)C(C)(C)Oc2c(-c3cn(C)c(=O)c4[nH]ccc34)cc(S(C)(=O)=O)cc21
6. NC(=O)N=Nc1c2ccccc2n2[nH]ccc12
7. O=C(N1CCN(c2ccccc2)CC1)N(C(=O)C1(c2ccc(Cl)cc2)CCCC1)S(=O)(=O)c1ccccc1
8. CC(=O)Nc1nc(C)c(-c2cc3c(c(S(C)(=O)=O)c2)C(=O)N([C@@H](C)C2CC2)C3)s1

Reply:
["0.824 µM", "42.8 µM", "> 100 µM", "> 100 µM", "40.3 µM", "> 100 µM", "49.7 µM", "> 100 µM"]

State recorded TGI for all listed compounds.
1. C=C1CC(CC(=O)C(C)CC2CC(=C)C(=O)O2)OC1=O (stereo not drawn)
2. O=C(CC(C(=O)c1cccs1)c1ccccc1)c1ccccc1O (stereo not drawn)
3. CCOC(=O)c1c(CN2CCOCC2)n(Cc2ccccc2)c2c1cc(O)c1nc(C)c(C)nc12
4. COc1ccc([Se]c2ccc(OC)cc2)cc1
5. Nc1nc2c(ncn2CC(CO)CC(c2ccccc2)P(=O)(O)O)c(=O)[nH]1 (stereo not drawn)

Reply:
1. 37.7 µM
2. > 100 µM
3. 87 µM
4. > 100 µM
5. > 100 µM

State recorded TGI for all listed compounds.
1. CC(=O)N1CCN(C=S)CC1
2. Cc1c(C=C(C#N)C#N)c(=O)n(C)c(=O)n1C
3. N#CC1([N+](=O)[O-])C=C1c1ccccc1 (stereo not drawn)
4. COc1cc2c(cc1OC)C(=O)N1CCCC1C(=O)S2 (stereo not drawn)
5. Cc1cccc2c(=O)c3c(O)cc4c(c3n(C)c12)C=CC(C)(C)O4
6. CC(C)C(=O)CP(=O)(O)O
7. CCOC(=O)C(C(=O)OCC)C(NC(=O)Nc1cc(C(F)(F)F)ccc1OC)(C(F)(F)F)C(F)(F)F

Reply:
1. > 100 µM
2. > 100 µM
3. > 100 µM
4. > 100 µM
5. > 100 µM
6. > 100 µM
7. 36.2 µM

State recorded TGI for all listed compounds.
1. NC(N)=NC(N)=NCc1ccco1
2. O=S1Cc2ccccc2CSS1 (stereo not drawn)
3. NC(N)=N/N=C/c1c(-c2ccc(Cl)cc2)nc2n1CCS2

Reply:
1: > 1250 µM; 2: 29.8 µM; 3: 25 µM

Hello, the source for this data is PubChem BioAssay (NCI), in case you need it.
